biological target: TRAILR2 receptor on the surface of human tumor cells (human, UniProt O14763 56-440); assay: cell-based or functional assay
QUANTITY KIND: IC50, cytotoxic effect on Jurkat E6-1 cells (CellTiter-Glo, 72 h) (µg/mL)
Number in µg/mL, nothing else.

Here are 5 binders together with their reported answers.
BINDER: Zaptuzumab (antibody, V domains shown) VH: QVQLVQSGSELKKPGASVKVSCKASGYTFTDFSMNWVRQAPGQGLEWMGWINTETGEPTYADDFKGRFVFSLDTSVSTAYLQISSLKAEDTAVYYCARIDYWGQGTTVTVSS VL: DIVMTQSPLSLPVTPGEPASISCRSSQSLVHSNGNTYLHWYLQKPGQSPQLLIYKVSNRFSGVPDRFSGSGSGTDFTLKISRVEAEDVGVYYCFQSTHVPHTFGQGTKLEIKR
UNIT: µg/mL
MEASURED VALUE: 0.201
--
BINDER: Zapadcine-3c (antibody, V domains shown, MMAE coupled through linker MC-VC-PAB by thiol conventional coupling, cleavable; positions not given) VH: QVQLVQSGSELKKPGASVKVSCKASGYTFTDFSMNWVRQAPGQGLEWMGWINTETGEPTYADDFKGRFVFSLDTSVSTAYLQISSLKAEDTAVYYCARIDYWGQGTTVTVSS VL: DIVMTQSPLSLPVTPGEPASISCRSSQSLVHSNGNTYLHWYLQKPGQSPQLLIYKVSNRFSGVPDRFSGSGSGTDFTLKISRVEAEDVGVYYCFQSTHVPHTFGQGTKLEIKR
UNIT: µg/mL
MEASURED VALUE: 0.0896
--
BINDER: Zapadcine-3d (antibody, V domains shown, MMAE coupled through linker MC by thiol conventional coupling, non-cleavable; positions not given) VH: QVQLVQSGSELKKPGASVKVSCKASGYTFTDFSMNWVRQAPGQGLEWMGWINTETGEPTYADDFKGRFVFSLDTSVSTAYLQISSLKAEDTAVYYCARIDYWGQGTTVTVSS VL: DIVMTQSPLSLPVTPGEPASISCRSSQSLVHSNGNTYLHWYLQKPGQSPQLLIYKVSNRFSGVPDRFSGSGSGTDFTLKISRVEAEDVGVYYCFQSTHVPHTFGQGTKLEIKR
UNIT: µg/mL
MEASURED VALUE: 0.00571
--
BINDER: Zapadcine-3a (antibody, V domains shown, MMAE coupled through linker PY-VC-PAB by thiol bridge coupling, cleavable; positions not given) VH: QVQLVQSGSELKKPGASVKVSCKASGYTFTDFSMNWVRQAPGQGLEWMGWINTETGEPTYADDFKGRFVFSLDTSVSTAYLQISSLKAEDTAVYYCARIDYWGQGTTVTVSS VL: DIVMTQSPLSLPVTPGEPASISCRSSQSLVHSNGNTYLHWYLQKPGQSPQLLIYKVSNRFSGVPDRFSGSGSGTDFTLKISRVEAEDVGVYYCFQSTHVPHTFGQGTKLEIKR
UNIT: µg/mL
MEASURED VALUE: 0.0372
--
BINDER: Zapadcine-3b (antibody, V domains shown, MMAE coupled through linker PY-MAA by thiol bridge coupling, non-cleavable; positions not given) VH: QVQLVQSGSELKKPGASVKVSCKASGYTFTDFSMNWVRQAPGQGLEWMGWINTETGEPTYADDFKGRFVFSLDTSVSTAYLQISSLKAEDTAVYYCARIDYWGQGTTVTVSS VL: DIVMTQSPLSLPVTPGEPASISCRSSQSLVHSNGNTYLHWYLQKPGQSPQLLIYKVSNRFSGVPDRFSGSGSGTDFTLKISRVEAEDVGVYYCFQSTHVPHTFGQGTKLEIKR
UNIT: µg/mL
MEASURED VALUE: 0.0717

Now for a further binder.
Request: Recorded IC50, cytotoxic effect on Jurkat E6-1 cells (CellTiter-Glo, 72 h) for Zapadcine-3e (antibody, V domains shown, MMAF coupled through linker MC by thiol conventional coupling, non-cleavable; positions not given) VH: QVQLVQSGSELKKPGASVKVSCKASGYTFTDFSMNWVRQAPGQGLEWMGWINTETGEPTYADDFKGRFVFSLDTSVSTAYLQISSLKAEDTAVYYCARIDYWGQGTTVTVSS VL: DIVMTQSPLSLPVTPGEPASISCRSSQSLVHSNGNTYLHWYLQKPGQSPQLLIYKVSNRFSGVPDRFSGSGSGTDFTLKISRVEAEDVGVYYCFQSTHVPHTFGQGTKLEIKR , please?
Result: 0.0981
